- Measured On: human PAH with the R408W mutation (Homo sapiens, UniProt P00439, R408W)
- Construct: expressed in transfected cells
- Test Name: Cell Based Phenylalanine Flux Assay
- Reported Conditions: A375 cells expressing human R408W PAH; 24 hrs with compound; 13C-Tyrosine by LC-MS; average where tested multiple times; read-out: AC50
Readout Name: AC50

Solved entries (count: 7):
Compound	AC50
O=C(c1cnn2cc(Cl)ccc12)N1CCc2[nH]cnc2C1c1nc2ccccc2[nH]1 (centres unmarked)	1 to 5 µM
Cc1nnc(C(=O)N2CCc3[nH]cnc3C2c2nc3ccccc3[nH]2)o1 (centres unmarked)	1 to 5 µM
O=C(c1oc(C=CC2CC2)nc1C(F)(F)F)N1CCCc2[nH]cnc2C1c1nc2ccccc2s1 (centres unmarked)	> 5 µM
O=C(c1ccno1)N1CCc2nc[nH]c2C1c1nc2c(F)cccc2s1 (centres unmarked)	1 to 5 µM
Cc1nc(N2CCOCC2)oc1C(=O)N1CCCc2[nH]cnc2C1c1nc2ccccc2s1 (centres unmarked)	> 5 µM
O=C(Cc1ccccn1)N1CCc2[nH]cnc2C1c1nc2ccccc2s1 (centres unmarked)	> 5 µM
Cn1nc(-c2ccccn2)cc1C(=O)N1CCc2[nH]cnc2C1c1nc2c(F)cccc2s1 (centres unmarked)	1 to 5 µM

In the following, a different compound is considered.
[ask] // returns reported AC50 for input COc1ccn2ncc(C(=O)N3CCc4[nH]cnc4[C@H]3c3nc4ccccc4[nH]3)c2c1
[reply] 1 to 5 µM

----------
- Measured On: human PAH with the R408W mutation (Homo sapiens, UniProt P00439, R408W)
- Construct: expressed in transfected cells
- Test Name: Cell Based Phenylalanine Flux Assay
- Reported Conditions: A375 cells expressing human R408W PAH; 24 hrs compound incubation; 13C-Tyrosine by LC-MS; average where tested multiple times; read-out: AC50
Below, each entry is listed with its recorded AC50.

Solved entries (count: 4):
Compound	AC50
CC(C)(c1nc(C(F)F)c(C(=O)N2CCc3[nH]cnc3[C@H]2c2nc3c(F)cccc3s2)o1)S(C)(=O)=O	< 500 nM
Cc1ccc2sc([C@H]3c4nc[nH]c4CCN3C(=O)c3cncs3)nc2c1	1000 to 5000 nM
Nc1cnc(N2CCc3[nH]cnc3[C@@H]2c2nc3ccccc3s2)nc1 (single isomer, unassigned)	1000 to 5000 nM
CC(F)(F)c1ncc(C(=O)N2CCc3[nH]cnc3[C@@H]2c2nc3c(F)cccc3s2)s1	1000 to 5000 nM

[ask] // returns reported AC50 for input Cc1cnn(C)c1-c1nnc(C(=O)N2CCc3[nH]cnc3[C@@H]2c2nc3ccccc3s2)o1
[reply] 1000 to 5000 nM

[ask] // returns reported AC50 for input [2H][C@]1(c2nc3ccccc3s2)c2nc[nH]c2CCN1C(=O)c1ocnc1C
[reply] > 5000 nM

[ask] // returns reported AC50 for input O=C(CCC1CC1)N1CCc2[nH]cnc2[C@H]1c1nc2ccc(Cl)cc2[nH]1
[reply] < 500 nM

[ask] // returns reported AC50 for input O=C(CC1CC1(F)F)N1CCc2[nH]cnc2[C@H]1c1nc2ccccc2s1 (single isomer, unassigned) [Example 1274]
[reply] 500 to 1000 nM

[ask] // returns reported AC50 for input Cn1cc(C(=O)N2CCc3[nH]cnc3[C@H]2c2nc3ccccc3s2)c(C(F)F)n1
[reply] < 500 nM

[ask] // returns reported AC50 for input CNC(C)(C)c1nc(C(F)F)c(C(=O)N2CCc3[nH]cnc3[C@@H]2c2nc3c(F)cccc3s2)o1
[reply] < 500 nM

----------
Below, each entry is listed with its recorded AC50.
- Measured On: human PAH with the R408W mutation (Homo sapiens, UniProt P00439, R408W)
- Construct: expressed in transfected cells
- Test Name: Cell Based Phenylalanine Flux Assay
- Reported Conditions: A375 cells expressing human R408W PAH; 24 hrs with compound; 13C-Tyrosine by LC-MS; average where tested multiple times; read-out: AC50

Solved entries (count: 3):
Compound	Experimental Result
O=C(Cn1cncn1)N1CCc2[nH]cnc2C1c1nc2ccccc2s1 (centres unmarked)	> 5 µM
Cc1ncoc1CC(=O)N1CCc2[nH]cnc2[C@H]1c1nc2ccccc2[nH]1	1 to 5 µM
O=C(Cc1nncs1)N1CCc2[nH]cnc2C1c1nc2ccccc2s1 (centres unmarked)	> 5 µM

In the following, a different compound is considered.
[ask] // returns reported AC50 for input Cc1nc(C2CCN2)oc1C(=O)N1CCc2[nH]cnc2C1c1nc2c(F)cccc2s1 (centres unmarked)
[reply] > 5 µM

----------
Below, each entry is listed with its recorded AC50.
- Measured On: human PAH with the R408W mutation (Homo sapiens, UniProt P00439, R408W)
- Construct: expressed in transfected cells
- Test Name: Cell Based Phenylalanine Flux Assay
- Reported Conditions: A375 cells expressing human R408W PAH; 24 hrs with compound; 13C-Tyrosine by LC-MS; average where tested multiple times; read-out: AC50

Molecule	AC50
O=C(c1ccccn1)N1CCc2[nH]cnc2[C@H]1c1nc2ccccc2[nH]1	1 to 5 µM
O=C(c1cnn2cccc(F)c12)N1CCc2[nH]cnc2[C@H]1c1nc2ccccc2[nH]1	1 to 5 µM

[ask] // returns reported AC50 for input N#Cc1ccn2ncc(C(=O)N3CCc4[nH]cnc4C3c3nc4ccc(Br)cc4[nH]3)c2c1 (stereo not shown)
[reply] > 5 µM

[ask] // returns reported AC50 for input Nc1nnc(CCC(=O)N2CCc3[nH]cnc3C2c2nc3ccccc3[nH]2)s1 (stereo not shown)
[reply] > 5 µM

----------
Below, each entry is listed with its recorded AC50.
- Measured On: human PAH with the R408W mutation (Homo sapiens, UniProt P00439, R408W)
- Construct: expressed in transfected cells
- Test Name: Cell Based Phenylalanine Flux Assay
- Reported Conditions: A375 cells expressing human R408W PAH; 24 hrs compound incubation; 13C-Tyrosine by LC-MS; average where tested multiple times; read-out: AC50

Test Smiles	Measured On	AC50
Cn1nc(CF)cc1C(=O)N1CCc2[nH]cnc2[C@@H]1c1nc2c(F)cccc2s1	human PAH with the R408W mutation (Homo sapiens, UniProt P00439, R408W)	1000 to 5000 nM
O=C(c1oc(C2(O)CCC2)nc1C(F)(F)F)N1CCCc2[nH]cnc2[C@H]1c1nc2ccccc2s1	human PAH with the R408W mutation (Homo sapiens, UniProt P00439, R408W)	1000 to 5000 nM
O=C(c1nnc(-c2ncccc2F)o1)N1CCc2[nH]cnc2[C@@H]1c1nc2ccccc2s1	human PAH with the R408W mutation (Homo sapiens, UniProt P00439, R408W)	< 500 nM
O=C(c1oc(NC2CC2)nc1C(F)(F)F)N1CCCc2[nH]cnc2[C@H]1c1nc2ccccc2s1	human PAH with the R408W mutation (Homo sapiens, UniProt P00439, R408W)	1000 to 5000 nM

In the following, a different compound is considered.
[ask] // returns reported AC50 for input Cn1cc(-c2ccc3c(C(=O)N4CCc5[nH]cnc5[C@H]4c4nc5ccccc5s4)cnn3c2)cn1
[reply] < 500 nM

----------
Below, each entry is listed with its recorded AC50.
- Measured On: human PAH with the R408W mutation (Homo sapiens, UniProt P00439, R408W)
- Construct: expressed in transfected cells
- Sequence (P00439 1-452 R408W): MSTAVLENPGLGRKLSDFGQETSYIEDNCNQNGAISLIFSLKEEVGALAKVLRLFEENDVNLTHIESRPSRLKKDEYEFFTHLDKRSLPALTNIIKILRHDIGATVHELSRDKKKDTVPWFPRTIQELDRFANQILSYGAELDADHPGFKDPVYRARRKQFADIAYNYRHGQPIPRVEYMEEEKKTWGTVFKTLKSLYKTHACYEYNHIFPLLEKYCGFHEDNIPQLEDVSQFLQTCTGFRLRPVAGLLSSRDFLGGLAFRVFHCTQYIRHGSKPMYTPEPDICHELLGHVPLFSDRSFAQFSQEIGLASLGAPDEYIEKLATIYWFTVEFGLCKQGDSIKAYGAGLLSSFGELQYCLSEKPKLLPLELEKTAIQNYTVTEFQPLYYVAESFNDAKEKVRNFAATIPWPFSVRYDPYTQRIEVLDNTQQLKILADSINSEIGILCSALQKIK
- Test Name: Cell Based Phenylalanine Flux Assay
- Reported Conditions: A375 cells expressing human R408W PAH; 24 hrs compound incubation; 13C-Tyrosine by LC-MS; average where tested multiple times; read-out: AC50

Compound	Experimental Result
Cc1c(C(=O)N2CCc3[nH]cnc3[C@@H]2c2nc3c(F)cccc3s2)cnn1-c1ccccn1	> 5000 nM
CC(F)(F)c1ncc(C(=O)N2CCc3[nH]cnc3[C@H]2c2nc3ccccc3s2)s1	< 500 nM
Cc1ccn2ncc(C(=O)N3CCc4[nH]cnc4[C@@H]3c3nc4ccccc4s3)c2c1	1000 to 5000 nM
O=C(c1nccs1)N1CCc2[nH]cnc2[C@H]1c1nc2cccc(Br)c2s1	500 to 1000 nM
CC(F)(F)c1ncoc1C(=O)N1CCc2[nH]cnc2[C@H]1c1nc2c(F)cccc2s1	< 500 nM

[ask] Please state recorded AC50 (tested on human PAH with the R408W mutation (Homo sapiens, UniProt P00439, R408W)) of O=C(c1cnn2ccc(Br)cc12)N1CCc2[nH]cnc2[C@H]1c1nc2cccc(F)c2s1
[reply] < 500 nM

[ask] Please state recorded AC50 (tested on human PAH with the R408W mutation (Homo sapiens, UniProt P00439, R408W)) of O=C(CC1CC(F)C1)N1CCc2[nH]cnc2[C@H]1c1nc2c(F)cccc2s1 (stereo partly shown)
[reply] < 500 nM

[ask] Please state recorded AC50 (tested on human PAH with the R408W mutation (Homo sapiens, UniProt P00439, R408W)) of O=C(c1oc(C2(O)CCC2)nc1C(F)(F)F)N1CCCc2[nH]cnc2[C@@H]1c1nc2ccccc2s1
[reply] 1000 to 5000 nM

[ask] Please state recorded AC50 (tested on human PAH with the R408W mutation (Homo sapiens, UniProt P00439, R408W)) of Cn1nc(Br)nc1C(=O)N1CCc2[nH]cnc2[C@@H]1c1nc2ccccc2s1
[reply] 1000 to 5000 nM

[ask] Please state recorded AC50 (tested on human PAH with the R408W mutation (Homo sapiens, UniProt P00439, R408W)) of O=C(c1oc(CCC2CC2)nc1C(F)(F)F)N1CCc2[nH]cnc2[C@H]1c1nc2ccccc2s1
[reply] < 500 nM

[ask] Please state recorded AC50 (tested on human PAH with the R408W mutation (Homo sapiens, UniProt P00439, R408W)) of O=C(c1oc(-c2ccccn2)nc1C1CC1)N1CCc2[nH]cnc2[C@H]1c1nc2cccc(F)c2s1
[reply] < 500 nM

[ask] Please state recorded AC50 (tested on human PAH with the R408W mutation (Homo sapiens, UniProt P00439, R408W)) of O=C(c1cnc(-c2ccc(F)cn2)o1)N1CCc2[nH]cnc2[C@@H]1c1nc2ccccc2s1
[reply] 1000 to 5000 nM

[ask] Please state recorded AC50 (tested on human PAH with the R408W mutation (Homo sapiens, UniProt P00439, R408W)) of Cc1nnc(C(=O)N2CCc3[nH]cnc3[C@H]2c2nc3ccccc3s2)s1
[reply] 1000 to 5000 nM
